- study-target: 5-HT2AR (Mus musculus)
- assay-comment: [3H]Ketanserin competition binding, mouse striatum membranes
- conditions: read-out: Ki-low; mouse striatum; with quinpirole (10^−5 M); two-site model; mean ± SEM
recorded-endpoint: Ki (nM)
// note: answer is a bare numeric in nM

Task: Find the measured Ki of COc1cc(CC(C)N)c(OC)cc1I (racemic) [DOI, (+/−)-2,5-dimethoxy-4-iodoamphetamine] and report it.
Output: 510

###

- study-target: 5-HT2AR (Mus musculus, UniProt P35363)
- Sequence (P35363 whole entry): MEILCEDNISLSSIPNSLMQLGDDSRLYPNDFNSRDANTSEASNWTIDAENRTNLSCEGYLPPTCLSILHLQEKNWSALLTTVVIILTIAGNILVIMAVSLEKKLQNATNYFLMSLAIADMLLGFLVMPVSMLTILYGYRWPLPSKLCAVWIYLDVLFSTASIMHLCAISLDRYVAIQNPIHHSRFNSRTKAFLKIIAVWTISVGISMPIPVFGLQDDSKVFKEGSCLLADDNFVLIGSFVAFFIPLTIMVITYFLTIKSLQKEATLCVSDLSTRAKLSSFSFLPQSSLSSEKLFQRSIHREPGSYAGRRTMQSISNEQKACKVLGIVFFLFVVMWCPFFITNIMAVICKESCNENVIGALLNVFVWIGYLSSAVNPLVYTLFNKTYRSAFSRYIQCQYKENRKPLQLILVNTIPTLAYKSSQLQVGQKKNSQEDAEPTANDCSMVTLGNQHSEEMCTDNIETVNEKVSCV
- assay-comment: [3H]Ketanserin competition binding, mouse striatum membranes
- conditions: read-out: Ki-low; mouse striatum; with quinpirole (10^−5 M) + raclopride (10^−6 M); one-site model; mean ± SEM
recorded-endpoint: Ki (nM)
// note: answer is a bare numeric in nM

Task: Find the measured Ki of COc1cc(CC(C)N)c(OC)cc1I (racemic) [DOI, (+/−)-2,5-dimethoxy-4-iodoamphetamine] and report it.
Output: 690

Just for reference, paper PMC3556730 is where these values come from.
